# measured on: human soluble guanylate cyclase alpha 1 and beta 1 subunits (sGC) stably expressed in Chinese hamster ovary cells (Homo sapiens, UniProt Q02108+Q02153)
# Construct: expressed in transfected cells; host or cells: Chinese hamster ovary cells, stably transfected
# Sequence (Q02108 whole entry partner): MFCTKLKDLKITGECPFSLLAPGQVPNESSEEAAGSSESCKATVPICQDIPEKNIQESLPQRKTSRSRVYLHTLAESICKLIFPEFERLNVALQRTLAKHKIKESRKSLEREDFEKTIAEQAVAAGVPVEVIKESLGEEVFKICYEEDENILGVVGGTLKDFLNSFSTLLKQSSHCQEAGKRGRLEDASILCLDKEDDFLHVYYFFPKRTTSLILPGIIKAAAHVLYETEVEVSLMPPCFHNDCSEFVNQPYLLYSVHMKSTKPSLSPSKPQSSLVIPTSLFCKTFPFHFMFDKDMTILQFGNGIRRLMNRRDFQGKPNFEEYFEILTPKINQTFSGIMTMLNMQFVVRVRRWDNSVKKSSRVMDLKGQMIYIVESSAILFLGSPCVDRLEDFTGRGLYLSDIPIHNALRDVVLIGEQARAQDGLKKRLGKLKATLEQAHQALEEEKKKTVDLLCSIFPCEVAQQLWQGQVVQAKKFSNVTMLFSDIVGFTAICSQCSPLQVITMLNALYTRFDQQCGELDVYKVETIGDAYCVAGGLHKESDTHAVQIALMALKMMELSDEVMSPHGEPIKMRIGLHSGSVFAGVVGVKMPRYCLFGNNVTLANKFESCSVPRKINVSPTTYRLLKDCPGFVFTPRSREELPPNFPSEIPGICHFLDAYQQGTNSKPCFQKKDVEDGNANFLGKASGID
# Sequence (Q02153 whole entry): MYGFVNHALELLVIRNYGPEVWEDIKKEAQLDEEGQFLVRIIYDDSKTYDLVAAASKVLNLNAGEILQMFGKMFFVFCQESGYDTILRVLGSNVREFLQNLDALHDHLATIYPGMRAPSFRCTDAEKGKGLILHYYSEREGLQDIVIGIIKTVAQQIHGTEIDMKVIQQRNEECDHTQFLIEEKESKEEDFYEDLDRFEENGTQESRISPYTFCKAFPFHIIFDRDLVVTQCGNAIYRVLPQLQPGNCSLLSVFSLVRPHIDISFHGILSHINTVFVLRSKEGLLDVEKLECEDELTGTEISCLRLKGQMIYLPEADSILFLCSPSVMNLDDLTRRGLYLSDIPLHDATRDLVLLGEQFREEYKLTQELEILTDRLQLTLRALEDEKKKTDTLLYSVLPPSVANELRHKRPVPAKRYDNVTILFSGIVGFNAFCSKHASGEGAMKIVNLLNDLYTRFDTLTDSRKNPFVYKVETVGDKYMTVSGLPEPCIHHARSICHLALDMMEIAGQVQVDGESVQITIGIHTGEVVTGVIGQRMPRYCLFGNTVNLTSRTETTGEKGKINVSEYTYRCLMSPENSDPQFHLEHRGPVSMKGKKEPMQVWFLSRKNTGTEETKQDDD
# method: sGC cellular activator assay: cGMP in CHO cells expressing human sGC, preincubated with ODQ
# Type: cell-based
# condition label: 40 microM ODQ preincubation, 30 min at room temperature, presence or absence of 50% human serum not given, read-out: EC50 nM, Activity of Compounds in Cellular Assay
endpoint label: EC50 (nM)

INSERT INTO measurements (compound, measured_result) VALUES
  ('Cc1ccc(OCc2ccc(C(=O)N3CC[C@@H](O)C3)cc2C)c(-c2csc(N3C[C@H]4CC[C@@H](C3)[C@H]4C(=O)O)n2)c1 [Compound 341]', 110),
  ('Cc1ccc(OCc2ccc(CN3CCOCC3)cc2C)c(-c2csc(N3CC4(CC4C(=O)O)C3)n2)c1 (centres unmarked) [Compound 257]', 540),
  ('CCN(CCO)C(=O)c1ccc(COc2ccc(C)cc2-c2csc(N3C[C@H]4CC[C@@H](C3)[C@H]4C(=O)O)n2)c(C)c1 [Compound 298]', 59),
  ('Cc1ccc(OCc2ccc(C(=O)N3CCCCC3)cc2C#N)c(-c2csc(N3C[C@H]4CC[C@@H](C3)[C@H]4C(=O)O)n2)c1 [Compound 263]', 13),
  ('Cc1ccc(OCc2ccc(C(=O)N(C)CCN(C)C)cc2C)c(-c2csc(N3C[C@H]4CC[C@@H](C3)[C@H]4C(=O)O)n2)c1 [Compound 305]', 140),
  ('Cc1ccc(OCc2ccc(C(=O)N(C)Cc3cncn3C)cc2C)c(-c2csc(N3C[C@H]4CC[C@@H](C3)[C@H]4C(=O)O)n2)c1 [Compound 331]', 140),
  ('Cc1ccc(OCc2ccc(C(=O)N3CCCCC3)cc2C)c(-c2csc(N3C[C@H]4C[C@@H](C3)[C@H]4C(=O)O)n2)c1 [Compound 236]', 79),
  ('Cc1ccc(OCc2ccc(C(=O)N(C)CCC#N)cc2C)c(-c2csc(N3C[C@H]4CC[C@@H](C3)[C@H]4C(=O)O)n2)c1 [Compound 296]', 50),
  ('Cc1cc(CN2CCS(=O)(=O)CC2)ccc1COc1ccc(Cl)cc1-c1csc(N2CC3CCC(C2)C3C(=O)O)n1 (centres unmarked) [Compound 211]', 190),
  ('Cc1ccc(OCc2ccc(CN3CCS(=O)(=O)CC3)cc2C)c(-c2csc(N3CC[C@@H](C(=O)O)[C@H]3C)n2)c1 [Compound 245]', 290),
  ('Cc1ccc(OCc2ccc(CN3CCN(C(=O)C4CC4)CC3)cc2C#N)c(-c2csc(N3C[C@H]4CC[C@@H](C3)[C@H]4C(=O)O)n2)c1 [Compound 265]', 42),
  ('Cc1cc(CN2CCOCC2)ccc1COc1c(C)cccc1-c1csc(N2C[C@H]3CC[C@@H](C2)[C@H]3C(=O)O)n1 [Compound 206]', 88),
  ('CO[C@H]1CCN(C(=O)c2ccc(COc3ccc(C)cc3-c3csc(N4C[C@H]5CC[C@@H](C4)[C@H]5C(=O)O)n3)c(C)c2)C1 [Compound 328]', 29),
  ('Cc1cc(CN2CCOCC2)ccc1COc1c(C)cccc1-c1csc(N2C3CCC2CC(C(=O)O)C3)n1 (centres unmarked) [Compound 210]', 430),
  ('Cc1ccc(OCc2ccc(C(=O)N(C)CCCO)cc2C)c(-c2csc(N3C[C@H]4CC[C@@H](C3)[C@H]4C(=O)O)n2)c1 [Compound 324]', 66),
  ('Cc1ccc(OCc2ccc(CN3CCS(=O)(=O)CC3)cc2C)c(-c2csc(N3CCCC(C(=O)O)CC3)n2)c1 (centres unmarked) [Compound 234]', 7.9),
  ('Cc1ccc(OCc2ccc(CN3CCOCC3)cc2C)c(-c2csc(N3CC(CC(=O)O)C3)n2)c1 [Compound 254]', 450),
  ('Cc1ccc(OCc2ccc(C(=O)N3CCOCC3)c(C)c2)c(-c2csc(N3C[C@H]4CC[C@@H](C3)[C@H]4C(=O)O)n2)c1 [Compound 281]', 28),
  ('Cc1ccc(OCc2ccc(CN3CCS(=O)(=O)CC3)cc2C)c(-c2csc(N3CCC4(C(=O)O)CC4C3)n2)c1 (centres unmarked) [Compound 217]', 8.7),
  ('Cc1ccc(OCc2ccc(C(=O)N3CCCCC3)cc2C)c(-c2nc(N3C[C@H]4CC[C@@H](C3)[C@H]4C(=O)O)sc2F)c1 [Compound 202]', 310),
  ('CCc1cc(C(=O)N2CCOCC2)ccc1COc1ccc(C)cc1-c1csc(N2C[C@H]3CC[C@@H](C2)[C@H]3C(=O)O)n1 [Compound 288]', 9.7),
  ('Cc1ccc(OCc2ccc(C(=O)N3CCC(C#N)CC3)cc2C)c(-c2csc(N3C[C@H]4CC[C@@H](C3)[C@H]4C(=O)O)n2)c1 [Compound 323]', 51),
  ('Cc1ccc(OCc2ccc(C(=O)N3CCC3)cc2C)c(-c2csc(N3C[C@H]4CC[C@@H](C3)[C@H]4C(=O)O)n2)c1 [Compound 361]', 17),
  ('Cc1ccc(OCc2ccc(CN3CCOC(CO)C3)cc2C#N)c(-c2csc(N3C[C@H]4CC[C@@H](C3)[C@H]4C(=O)O)n2)c1 (some centres unmarked) [Compound 227]', 99),
  ('Cc1cc(CN2CCS(=O)(=O)CC2)ccc1COc1c(C)cccc1-c1csc(N2C[C@H]3CC[C@@H](C2)[C@H]3C(=O)O)n1 [Compound 203]', 68),
  ('Cc1ccc(OCc2ccc(CN3CCS(=O)(=O)CC3)cc2C)c(-c2csc(N3CC(CC(=O)O)C3)n2)c1 [Compound 253]', 380);

Numbers sourced from patent US8815857B2.
